# measuredOn: Mitogen-activated protein kinase kinase kinase 5 (Homo sapiens)
# runConditions: at 10 µM

>  <smilesText>
O=C1NC(=O)/C(=C/c2ccc3c(c2)OC(F)(F)O3)S1

>  <residual activity [%]>
97

$$$$
>  <smilesText>
c1ccc2c(-c3ccncc3)c[nH]c2c1

>  <residual activity [%]>
77

$$$$
>  <smilesText>
CO[C@H]1[C@@H](OC)C[C@H](C)[C@@H](OC)C2=CC(=O)C=C(NC(=O)/C(C)=C/C=C/[C@H](OC)[C@@H](OC(N)=O)/C(C)=C/[C@@H]1C)C2=O

>  <residual activity [%]>
99

$$$$
>  <smilesText>
O=C(Nc1cccc(Nc2cc(Nc3cccc(C(F)(F)F)c3)ncn2)c1)C1CC1

>  <residual activity [%]>
104

$$$$
>  <smilesText>
CC#CC(=O)Nc1cc2c(Nc3ccc(F)c(Cl)c3)ncnc2cn1

>  <residual activity [%]>
94

$$$$
>  <smilesText>
Nc1cccc(-c2cc3c(Oc4cccc(O)c4)ncnc3[nH]2)c1

>  <residual activity [%]>
95

$$$$
>  <smilesText>
COc1cccc(-c2cc(=O)c3ccccc3o2)c1N

>  <residual activity [%]>
112

$$$$
>  <smilesText>
CC[n+]1c(/C=C/N(C)c2ccccc2)n(-c2ccccc2)c2ccc(-c3nc4ccccc4s3)cc21

>  <residual activity [%]>
102

$$$$
>  <smilesText>
Nc1n[nH]c2nnc(-c3c(-c4ccccc4)nn4ccccc34)cc12

>  <residual activity [%]>
100

$$$$
>  <smilesText>
O=C1NC(=O)c2c1c1c3ccccc3[nH]c1c1[nH]c3cc(Br)ccc3c21

>  <residual activity [%]>
86

$$$$
>  <smilesText>
NC(=O)c1ccc2[nH]c(-c3ccc(Oc4ccc(Cl)cc4)cc3)nc2c1

>  <residual activity [%]>
61

$$$$
>  <smilesText>
Cc1nc2cc3nc(-c4cccs4)cnc3cc2n1C

>  <residual activity [%]>
112

$$$$
>  <smilesText>
N#CC(C#N)=C(N)/C(C#N)=C/c1ccc(O)cc1

>  <residual activity [%]>
93

$$$$
>  <smilesText>
Cc1ccc(S(=O)(=O)/C=C/C#N)cc1

>  <residual activity [%]>
115

$$$$
>  <smilesText>
CN(C)c1ccc(/C=C2\C(=O)Nc3ccccc32)cc1

>  <residual activity [%]>
99

$$$$
>  <smilesText>
O=C(O)c1ccc2c3c1cccc3c(=O)n1c3ccccc3nc21

>  <residual activity [%]>
72

$$$$
>  <smilesText>
Cc1cc(Nc2nc(-c3ccccc3)nc3ccccc23)n[nH]1

>  <residual activity [%]>
100

$$$$
>  <smilesText>
COc1cc2ncc(-c3ccccc3)nc2cc1OC

>  <residual activity [%]>
77

$$$$
>  <smilesText>
O=C1NC(=O)c2cc(Nc3ccc(F)cc3)c(Nc3ccc(F)cc3)cc21

>  <residual activity [%]>
92

$$$$
>  <smilesText>
CCN(CC)CCCCN1c2ccccc2Oc2ccc(Cl)cc21

>  <residual activity [%]>
114

$$$$
>  <smilesText>
Cn1cc(/C=C2\C(=O)Nc3ccc(S(N)(=O)=O)cc32)c2ccccc21

>  <residual activity [%]>
7

$$$$
>  <smilesText>
O=Nc1c(-c2c(O)[nH]c3ccccc23)[nH]c2ccccc12

>  <residual activity [%]>
7

$$$$

Data origin: ChEMBL document CHEMBL2218924
